These measurements were taken from the supplement of paper PMC6555819.

- Tested on: RARg:RXRa (NR concentration 270 nM, RXRa partner concentration 90 nM)
- ASSAY COMMENT: PBM binding z-score (relative to random genomic background probes); higher = stronger binding; sequences stand for … in GC…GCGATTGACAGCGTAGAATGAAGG
MEASURED QUANTITY: PBM binding z-score
Numbers only.

Dear reader, for each entry below, please note its PBM binding z-score.
1. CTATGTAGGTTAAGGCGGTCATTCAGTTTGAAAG
2. TCTAGCTGGTCACGGAGGTCACACACGACGGGTA
3. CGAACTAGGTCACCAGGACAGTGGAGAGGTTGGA
4. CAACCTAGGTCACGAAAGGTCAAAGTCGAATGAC
5. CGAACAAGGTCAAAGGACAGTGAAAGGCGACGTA
6. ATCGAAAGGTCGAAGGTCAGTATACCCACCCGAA

Response given:
[1.31, 4.88, 4.53, 7.91, 5.92, 6.01]

Report PBM binding z-score for every entry below.
1. CCGAGTATGTTACGAGGGGGCATTCAGTGCGAAT
2. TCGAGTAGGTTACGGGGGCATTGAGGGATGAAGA
3. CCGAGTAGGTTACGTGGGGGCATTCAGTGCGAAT
4. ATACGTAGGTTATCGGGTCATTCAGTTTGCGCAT
5. GGAACGAGGGCAAAGGTGATAGCATCTGTCGACG
6. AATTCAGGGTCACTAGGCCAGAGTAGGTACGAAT
7. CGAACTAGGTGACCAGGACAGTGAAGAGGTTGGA
8. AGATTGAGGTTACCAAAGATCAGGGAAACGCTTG

Response given:
1: 1.76; 2: 3.47; 3: 2.87; 4: 3.41; 5: 3.02; 6: 6.06; 7: 0.633; 8: 2.15

Consider the following items and state reported PBM binding z-score for each.
1. CCGAGTAGGTTACGGGGGGGCATTCAGTGCGAAT
2. TTACCAAGGTGAACTGAGGTCGTTGATCCAACTC
3. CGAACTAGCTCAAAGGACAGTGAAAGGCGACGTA

Response given:
1: 4.41; 2: 2.52; 3: 0.138

Hi! Can you tell me PBM binding z-score for each of these sequences?
1. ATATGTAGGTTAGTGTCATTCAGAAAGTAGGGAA
2. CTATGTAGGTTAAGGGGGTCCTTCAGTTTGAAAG

Response given:
1: 1.14; 2: 1.79
